system.name: In Vitro Assembled Tau filaments (full length tau 4R2N, T40 isoform) (Homo sapiens)
Construct: full length tau monomer (4R2N, T40 isoform)
assay.method.text: Displacement binding assay with in vitro assembled tau filaments
measurement.conditions: radioligand [3H] Example 7 at 8 nM; 0.4 uM tau filaments; read-out: IC50, displacement of [3H] compound of Example 7 from in vitro assembled tau filaments
pIC50: −log10 of the molar value.
endpoint.label: pIC50

Worked examples, 2 compounds total:
chemical.string: COc1ccccc1NC(=O)Nc1ccc(-c2cnn3c2CCC3)cc1
pIC50: 7.60

chemical.string: COc1ccccc1NC(=O)Nc1ccc(-c2cn(C)c3cnccc23)cc1
pIC50: 7.87

(a) COc1ccccc1NC(=O)Nc1ccc(-c2cn(C)c3cnccc23)nc1
(b) Cn1cc(-c2ccc(NC(=O)Nc3ccccc3O)cn2)c2ccncc21
(c) COc1ccccc1NC(=O)Nc1ccc(-c2cnn(C)c2)cc1
Put the entries in order of pIC50, starting with the largest number. Write the labels out in the order the request specifies.
a, c, b
(a: 7.69, c: 7.47, b: 7.04)

* * *

system.name: In Vitro Assembled Tau filaments (full length tau 4R2N, T40 isoform) (Homo sapiens, UniProt P10636)
Construct: full length tau monomer (4R2N, T40 isoform)
Sequence (P10636 1-441 isoform P10636-8): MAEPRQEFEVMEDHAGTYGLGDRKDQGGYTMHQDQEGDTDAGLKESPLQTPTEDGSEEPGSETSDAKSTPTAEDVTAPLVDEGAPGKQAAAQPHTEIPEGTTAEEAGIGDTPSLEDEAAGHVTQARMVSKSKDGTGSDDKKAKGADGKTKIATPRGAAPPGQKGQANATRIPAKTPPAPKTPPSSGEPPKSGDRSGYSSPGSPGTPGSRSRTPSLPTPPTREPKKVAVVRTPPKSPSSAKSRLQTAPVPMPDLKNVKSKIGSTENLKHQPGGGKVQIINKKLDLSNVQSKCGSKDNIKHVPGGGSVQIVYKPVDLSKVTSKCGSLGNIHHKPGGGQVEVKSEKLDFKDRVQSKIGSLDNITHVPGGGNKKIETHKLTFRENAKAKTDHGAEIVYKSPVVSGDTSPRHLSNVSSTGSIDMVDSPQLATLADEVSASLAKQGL
assay.method.text: Displacement binding assay with in vitro assembled tau filaments
measurement.conditions: radioligand [3H] Example 6 at 8 nM; 0.4 uM tau filaments; self-block; read-out: apparent IC50, inhibition of [3H] compound of Example 6 binding to in vitro assembled filaments
endpoint.label: IC50 (nM)
Dear colleague, please return just the value in nM, with no unit written.

What IC50 value was documented for this compound, `COc1ccccc1NC(=O)Nc1ccc(-c2cn(C)c3cnccc23)cc1` ?
3

// provenance: patent US20150336948A1
